# target: amyloid-beta (Aβ) (Homo sapiens)
# Sequence (P05067 672-713): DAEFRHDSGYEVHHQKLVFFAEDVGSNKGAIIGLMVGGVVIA
# protocol_text: Aβ oligomerization ELISA (biotinylated Aβ[…]-42); also ThT fibrillization, […] inhibition at […]
# Type: biochemical
# Design: gene APP; biotinylated Aβ1-42 (oligomerization); Aβ1-40 (fibrillization)

compound: CC1CC(c2ccc(O)c(O)c2)c2cc(O)c(O)cc21 (mixture of isomers) [compound 6, Phenylindane]
scale_unit: µM
IC50: 42.1

====

# target: amyloid-beta (Aβ) (Homo sapiens)
# protocol_text: Aβ oligomerization ELISA (biotinylated Aβ[…]-42); also ThT fibrillization, […] inhibition at […]
# Type: biochemical
# Set-up: gene APP; biotinylated Aβ1-42 (oligomerization); Aβ1-40 (fibrillization)
pIC50: −log10 of the molar value.

molecule: O=c1c(O)c(-c2ccc(O)c(O)c2)oc2cc(O)cc(O)c12 [compound 5, Quercetin]
pIC50: 4.99

Where do the numbers come from? From paper PMC6194148.
